Data provenance is the Immune Epitope Database (IEDB).

# Experimental Target: HLA-B*18:01
# Assay Details: IEDB peptide-MHC binding, purified MHC/competitive/fluorescence; filed as Kd, often an IC50 or EC50 that approximates it; bounds were set here for any values at or beyond the usual limits of such assays
# Experimental Conditions: source organism: Vaccinia virus Copenhagen
pKd: −log10 of the molar value.
Experimental Readout: pKd

{"columns": ["Biopolymer Sequence", "Value Observed"],
 "data": [
  ["KYFDDVTAF", 7.06]
]}

---

# Experimental Target: HLA-A*02:02
# Assay Details: IEDB peptide-MHC binding, purified MHC/competitive/radioactivity; filed as Kd, often an IC50 or EC50 that approximates it; bounds were set here for any values at or beyond the usual limits of such assays
# Experimental Conditions: source organism: SARS coronavirus Tor2
# note: exactly 3 nM is not below, so it is Condition not met; use Condition met for Kd strictly under it

{"columns": ["Biopolymer Sequence", "Label Class"],
 "data": [
  ["YLSSVLLAL", "Condition met"],
  ["GLMWLSYFV", "Condition met"],
  ["TLGVYDYLV", "Condition met"],
  ["IMLIIFWFSL", "Condition not met"],
  ["FLNGSCGSV", "Condition met"],
  ["VLAWLYAAV", "Condition met"],
  ["NLLLLFVTI", "Condition not met"],
  ["FLAFLLFLV", "Condition met"],
  ["LMLKATLLCV", "Condition not met"],
  ["MLLTFLTSL", "Condition not met"],
  ["IAMWLLLLSI", "Condition not met"],
  ["ALYKGFQFI", "Condition met"]
]}

---

# Experimental Target: HLA-B*15:01
# Assay Details: IEDB peptide-MHC binding, purified MHC/direct/fluorescence; filed as Kd, often an IC50 or EC50 that approximates it; bounds were set here for any values at or beyond the usual limits of such assays
# Experimental Conditions: source organism: Yellow fever virus
pKd: −log10 of the molar value.
Experimental Readout: pKd

{"columns": ["Biopolymer Sequence", "Value Observed"],
 "data": [
  ["PHAATIRVL", "≤ 4.70"]
]}

---

# Experimental Target: HLA-B*44:03
# Assay Details: IEDB peptide-MHC binding, purified MHC/competitive/radioactivity; filed as Kd, often an IC50 or EC50 that approximates it; bounds were set here for any values at or beyond the usual limits of such assays
# Experimental Conditions: source organism: Mammarenavirus guanaritoense
Experimental Readout: Kd

{"columns": ["Biopolymer Sequence", "Experimental Readout", "Value Observed"],
 "data": [
  ["SEDGLDGFDW", "Kd", "21.2 nM"]
]}

---

# Experimental Target: HLA-C*14:02
# Assay Details: IEDB peptide-MHC binding, purified MHC/direct/fluorescence; filed as Kd, often an IC50 or EC50 that approximates it; bounds were set here for any values at or beyond the usual limits of such assays
# Experimental Conditions: source organism: Cryptosporidium parvum Iowa II

{"columns": ["Biopolymer Sequence", "Reading Unit", "Kd"],
 "data": [
  ["SFLHWFHHL", "nM", 111]
]}

---

# Experimental Target: HLA-A*26:01
# Assay Details: IEDB peptide-MHC binding, purified MHC/competitive/radioactivity; filed as Kd, often an IC50 or EC50 that approximates it; bounds were set here for any values at or beyond the usual limits of such assays
# Experimental Conditions: source organism: Dengue virus 1 Brazil/97-11/1997
pKd: −log10 of the molar value.
The following sequences are shown together with reported pKd values.
Experimental Readout: pKd

{"columns": ["Biopolymer Sequence", "Experimental Readout", "Comparison Sign", "Value Observed"],
 "data": [
  ["MSIPATLFVW", "pKd", "=", 4.81],
  ["PTSEIQLTDY", "pKd", "≤", 4.16]
]}

---

# Experimental Target: HLA-B*46:01
# Assay Details: IEDB peptide-MHC binding, purified MHC/competitive/fluorescence; filed as Kd, often an IC50 or EC50 that approximates it; bounds were set here for any values at or beyond the usual limits of such assays
# Experimental Conditions: source organism: Vibrio parahaemolyticus RIMD 2210633
pKd: −log10 of the molar value.

{"columns": ["Biopolymer Sequence", "pKd"],
 "data": [
  ["SMNYPNSYK", "≤ 4.70"]
]}

---

# Experimental Target: HLA-B*15:42
# Assay Details: IEDB peptide-MHC binding, purified MHC/competitive/fluorescence; filed as Kd, often an IC50 or EC50 that approximates it; bounds were set here for any values at or beyond the usual limits of such assays
# Experimental Conditions: source organism: Homo sapiens

{"columns": ["Biopolymer Sequence", "Kd"],
 "data": [
  ["KGPPAALTL", "≥ 5 µM"]
]}

---

# Experimental Target: HLA-A*02:17
# Assay Details: IEDB peptide-MHC binding, purified MHC/competitive/radioactivity; filed as Kd, often an IC50 or EC50 that approximates it; bounds were set here for any values at or beyond the usual limits of such assays
# Experimental Conditions: source organism: Dengue virus 4 Philippines/H241/1956
Experimental Readout: log10(Kd) (log10 of the value in nM)

{"columns": ["Biopolymer Sequence", "log10(Kd)"],
 "data": [
  ["TIMAVLFVV", 2.90],
  ["GLLCLTLFV", 0.93],
  ["GLNTFTNMEV", 2.62],
  ["AVASGLLWV", 3.52],
  ["IMAVGLVSL", 2.90]
]}

---

# Experimental Target: HLA-A*02:12
# Assay Details: IEDB peptide-MHC binding, purified MHC/direct/fluorescence; filed as Kd, often an IC50 or EC50 that approximates it; bounds were set here for any values at or beyond the usual limits of such assays
# Experimental Conditions: source organism: Ravn virus - Ravn, Kenya, 1987
pKd: −log10 of the molar value.
Experimental Readout: pKd

{"columns": ["Biopolymer Sequence", "Value Observed"],
 "data": [
  ["DLEKYNLAF", "≤ 4.70"]
]}

---

# Experimental Target: HLA-A*02:03
# Assay Details: IEDB peptide-MHC binding, purified MHC/competitive/radioactivity; filed as Kd, often an IC50 or EC50 that approximates it; bounds were set here for any values at or beyond the usual limits of such assays
# Experimental Conditions: source organism: Dengue virus 1 Brazil/97-11/1997

{"columns": ["Biopolymer Sequence", "Kd, nM"],
 "data": [
  ["GLNTFTNMEV", 15.3],
  ["SLLFKTSAGV", 287],
  ["KLARASFIEV", 20.1],
  ["TMKEKSWLV", 94.6]
]}

---

# Experimental Target: HLA-B*83:01
# Assay Details: IEDB peptide-MHC binding, purified MHC/competitive/fluorescence; filed as Kd, often an IC50 or EC50 that approximates it; bounds were set here for any values at or beyond the usual limits of such assays
# Experimental Conditions: source organism: Escherichia coli K-12
Experimental Readout: Kd

{"columns": ["Biopolymer Sequence", "Experimental Target", "Value Observed"],
 "data": [
  ["RQWGMGFLL", "HLA-B*83:01", "≥ 5 µM"]
]}

---

# Experimental Target: HLA-B*39:01
# Assay Details: IEDB peptide-MHC binding, purified MHC/competitive/fluorescence; filed as Kd, often an IC50 or EC50 that approximates it; bounds were set here for any values at or beyond the usual limits of such assays
# Experimental Conditions: source organism: Escherichia coli str. K-12 substr. MG1655

{"columns": ["Biopolymer Sequence", "Experimental Target", "Kd"],
 "data": [
  ["FHNDSTPRY", "HLA-B*39:01", "3.47 µM"]
]}

---

# Experimental Target: HLA-A*69:01
# Assay Details: IEDB peptide-MHC binding, purified MHC/direct/fluorescence; filed as Kd, often an IC50 or EC50 that approximates it; bounds were set here for any values at or beyond the usual limits of such assays
# Experimental Conditions: source organism: Homo sapiens

{"columns": ["Biopolymer Sequence", "Kd (µM)"],
 "data": [
  ["DAYRRIHSL", 0.119]
]}

---

# Experimental Target: HLA-B*40:01
# Assay Details: IEDB peptide-MHC binding, purified MHC/competitive/radioactivity; filed as Kd, often an IC50 or EC50 that approximates it; bounds were set here for any values at or beyond the usual limits of such assays
# Experimental Conditions: source organism: Lymphocytic choriomeningitis virus (strain Armstrong)
pKd: −log10 of the molar value.

{"columns": ["Biopolymer Sequence", "pKd"],
 "data": [
  ["SEISVILQEL", 6.06]
]}

---

# Experimental Target: HLA-B*40:01
# Assay Details: IEDB peptide-MHC binding, purified MHC/competitive/fluorescence; filed as Kd, often an IC50 or EC50 that approximates it; bounds were set here for any values at or beyond the usual limits of such assays
# Experimental Conditions: source organism: Burkholderia mallei SAVP1
pKd: −log10 of the molar value.

{"columns": ["Biopolymer Sequence", "pKd"],
 "data": [
  ["MVFGRFSFA", "≤ 5.30"]
]}
